Recorded values, source ChEMBL document CHEMBL1135976.

test system: FM3A; test: Percent inhibition of growth against mouse mammary FM3A cells; format: cell-based; set-up: concentration or dose not given beside the values
// boundary case: Inhibition equal to 10% maps to Not satisfied; strictly smaller maps to Satisfied

Here's an entry: CC1(CI)C[C@H]2CCCC(C2)OO1 (some centres undefined) . Is its Inhibition below 10%?
Not satisfied

Here's an entry: CC1(CI)C[C@H]2CCCCC2O1 (some centres undefined) . Is its Inhibition below 10%?
Not satisfied

Here's an entry: COC12CCC[C@H](CC(C)(CI)OO1)C2 (some centres undefined) . Is its Inhibition below 10%?
Satisfied

Here's an entry: COC12CCC[C@@H](C1)C(C)(CI)OO2 (some centres undefined) . Is its Inhibition below 10%?
Not satisfied

Here's an entry: COC12C[C@H](CC[C@@H]1C)C(C)(CI)OO2 (some centres undefined) . Is its Inhibition below 10%?
Satisfied

Here's an entry: CC12CCC[C@H](C1)C(C)(CI)O2 (some centres undefined) . Is its Inhibition below 10%?
Satisfied

----------
test system: FM3A; assay: Percent inhibition of growth against mouse mammary FM3A cells; type: cell-based; set-up: concentration or dose not given beside the values
property: Inhibition (%)
Write it as a number; the unit % goes unstated.

Supply recorded Inhibition for COC12CCC[C@@H](C1)C(I)C(C)(C)OO2 (stereo partly drawn) here.
10

Supply recorded Inhibition for CC12CCC[C@@H](C1)C(C)(CI)OO2 (stereo partly drawn) here.
10

Supply recorded Inhibition for CC1(C)OC2(CI)CCCC1C2 (stereo not drawn) here.
10
